Experimental details: solubility tests in DMSO, normal saline and 0.2 M NaCl by visual examination
Format: physicochemical
Condition description: 0.2 M NaCl
Ends that are not written are not given here.
Measured property: Solubility (dissolved Yes/No), 0.2M Sodium (NaCl)

Polymer sequence: DMEEMMSEQENPDSSEPVVEDE [SEQ ID NO: 30]
Value: Yes
//
Polymer sequence: NEGIEITEVTAPPEDNPVEDSQ [SEQ ID NO: 31]
Value: Yes
//
Polymer sequence: DSQVIVEEVSIFPVEEQQEVPPD [SEQ ID NO: 32]
Value: Yes
//
Polymer sequence: GEDLQQEDGPTGEPQQEDDEFL [SEQ ID NO: 29]
Value: Yes

src = patent US12655184B2
